The values you see were collected from patent US10287305B2.

Below is a list of entries, each paired with its recorded Emax at 30 µM value.
Biological target: human orexin type 2 receptor (hOX2R) (Homo sapiens (Human), UniProt O43614)
Sequence (O43614 whole entry): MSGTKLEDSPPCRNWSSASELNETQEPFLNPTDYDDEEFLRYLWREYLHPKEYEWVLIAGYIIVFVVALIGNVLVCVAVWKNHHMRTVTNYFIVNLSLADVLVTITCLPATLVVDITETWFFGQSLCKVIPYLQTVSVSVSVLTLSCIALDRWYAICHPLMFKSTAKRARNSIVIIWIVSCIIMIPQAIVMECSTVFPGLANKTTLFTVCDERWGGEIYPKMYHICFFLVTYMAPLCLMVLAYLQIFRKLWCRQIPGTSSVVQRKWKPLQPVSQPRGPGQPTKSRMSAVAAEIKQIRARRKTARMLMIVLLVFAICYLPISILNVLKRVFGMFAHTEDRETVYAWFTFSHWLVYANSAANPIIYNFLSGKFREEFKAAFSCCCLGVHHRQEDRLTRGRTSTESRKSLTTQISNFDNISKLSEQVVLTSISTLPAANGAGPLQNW
Experiment: Measurement of orexin type 2 receptor agonist activity (Experimental Example 2-1, FLIPR TETRA, intracellular Ca2+);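 also: Buffer-only well is 0% and 10 nM human orexin B is 100%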
Assay type: cell-based
Conditions: value at 30 uM concentration; orexin B as full agonist = 100%; CHO dhfr- cells expressing hOX2R
Measure: Emax at 30 µM (%)

INSERT INTO results (compound, numeric_value) VALUES
  ('Cc1nc(S(=O)(=O)N2CCC[C@H](NS(C)(=O)=O)[C@@H]2CO[C@H]2CC[C@@H](C(C)C)CC2)cn1C (relative stereo) [Example 65]', 95),
  ('CC(C)[C@H]1CC[C@@H](OC[C@H]2[C@@H](NS(C)(=O)=O)CCCN2C(=O)NCC(F)(F)F)CC1 (relative stereo) [Example 98]', 107),
  ('CC(C)[C@H]1CC[C@@H](OC[C@H]2[C@@H](NS(C)(=O)=O)CCCN2C(=O)CCS(C)(=O)=O)CC1 (relative stereo) [Example 74]', 89),
  ('CC(C)[C@H]1CC[C@@H](OC[C@H]2[C@@H](NS(C)(=O)=O)CCCN2C(=O)COc2ccn(C)n2)CC1 [Example 84]', 98),
  ('CC(C)[C@H]1CC[C@@H](OC[C@H]2[C@@H](NS(C)(=O)=O)CCCN2C(=O)C2CC(=O)C2)CC1 [Example 91]', 89),
  ('COc1ccccc1[C@H]1CC[C@@H](OC[C@H]2[C@@H](NS(C)(=O)=O)CCCN2C(=O)C2CC2)CC1 [Example 28]', 96),
  ('CC(=O)N1CCC[C@H](NS(C)(=O)=O)[C@@H]1CO[C@H]1CC[C@@H](c2ccccc2C(F)(F)F)CC1 [Example 24]', 102),
  ('CC(C)[C@H]1CC[C@@H](OC[C@H]2[C@@H](NS(C)(=O)=O)CCCN2C(=O)C2CCOCC2)CC1 (relative stereo) [Example 60]', 101),
  ('CC(=O)N1CCC[C@H](NS(C)(=O)=O)[C@@H]1CO[C@H]1CC[C@@H](C(C)C)CC1 [Example 70]', 98),
  ('CC(=O)N1CCC[C@H](NS(=O)(=O)C(F)(F)F)[C@@H]1CO[C@H]1CC[C@@H](C(C)C)CC1 (relative stereo) [Example 80]', 98),
  ('CCS(=O)(=O)N[C@H]1CCCN(C(C)=O)[C@H]1CO[C@H]1CC[C@@H](C(C)C)CC1 [Example 33]', 98),
  ('CC(C)[C@H]1CC[C@@H](OC[C@H]2[C@@H](NS(C)(=O)=O)CCCN2C(=O)NC2CC2)CC1 (relative stereo) [Example 99]', 112),
  ('CC(C)[C@H]1CC[C@@H](OC[C@H]2[C@@H](NS(C)(=O)=O)CCCN2C(=O)CC(C)(C)O)CC1 (relative stereo) [Example 73]', 92),
  ('CC(=O)N1CCC[C@H](NS(C)(=O)=O)[C@@H]1CO[C@H]1CC[C@@H](c2c(F)ccc(F)c2F)CC1 [Example 22]', 98),
  ('CNC(=O)N1CCC[C@H](NS(C)(=O)=O)[C@@H]1CO[C@H]1CC[C@@H](C(C)C)CC1 [Example 102]', 101);
